Data credit: patent US20240299376A1

method: Serum concentration after 28 days of oral dosing in male OCI-LY3 tumor-bearing NSG mice
Assay type: in vivo
recorded-conditions: mouse, 3 mg/kg BID PO 28 days, 1 h post last dose, mean, N = 2
Protocol: For study 3, animals were randomly assigned into treatment groups, when the OCI-LY3 mean tumor volume was 164 mm^3 (Day 32 post-tumor cell implantation). Treatment was initiated on the day of randomization (Day 32). After 28 days of treatment on Day 60, serum was collected at 2, 4, and 12 hours post last dose for the bid treated groups or 2, 4 and 24 hours post last dose for qd treated groups in cohorts of 5 mice. […]

input-smiles | concentration at 1 h, ng/mL
O=C(Nc1ccnc(C(F)(F)F)c1)c1cnn(-c2cccc3c(=O)[nH]ccc23)c1C(F)(F)F | 1940

====

method: Single IV dose plasma PK
Type: in vivo, mouse
recorded-conditions: male, plasma; Mouse, CD-1, 3M, 1 mg/kg IV in 70% PEG400; mean

molecule | clearance [mL/min/kg]
O=C(Nc1ccnc(C(F)(F)F)c1)c1cnn(-c2cccc3c(=O)[nH]ccc23)c1C(F)(F)F [Compound A] | 1.3

====

method: FIH study 67856633LYM1001 plasma pharmacokinetics
Format: in vivo, human
recorded-conditions: human, plasma, oral, 400 mg, Cycle 1 Day 1, 200 mg capsule, cohort 2 × 200 mg; mean; read-out: AUCτ
measurement-kind: AUC (ng·h/mL)

compound | recorded-value
O=C(Nc1ccnc(C(F)(F)F)c1)c1cnn(-c2cccc3c(=O)[nH]ccc23)c1C(F)(F)F [Compound A] | 68000

====

method: Single oral dose plasma PK in fasted dogs
Format: in vivo, dog
recorded-conditions: female, beagle, dog, plasma, po, 100 mg/kg, 2F, 100 mg/kg PO, 100% PEG400 solution, Study 7
measurement-kind: Tmax (h)

input-smiles | measurement-kind | result-unit | recorded-value
O=C(Nc1ccnc(C(F)(F)F)c1)c1cnn(-c2cccc3c(=O)[nH]ccc23)c1C(F)(F)F | Tmax | h | 15.5

====

method: Single oral dose plasma PK in fasted dogs
Format: in vivo, dog
recorded-conditions: male, beagle, dog, plasma, po, 5 mg/kg, 3M, 5 mg/kg PO, -ZAF salt nanosuspension (HPMC:DOSS suspension), Study 5
Text: With the suspension formulation the double-peak phenomenon is even more pronounced. As observed in rats, dose escalation in dogs resulting in proportional or dose-related exposure with the PEG400 solution was unsuccessful in identifying a vehicle suitable for toxicology studies.
measurement-kind: Cmax

compound | recorded-value
O=C(Nc1ccnc(C(F)(F)F)c1)c1cnn(-c2cccc3c(=O)[nH]ccc23)c1C(F)(F)F [Compound A] | 1450 ng/mL

====

method: Single IV dose plasma PK
Type: in vivo, mouse
recorded-conditions: male, plasma; Mouse, CD-1, 3M, 1 mg/kg IV in 70% PEG400; mean
measurement-kind: C0 (ng/mL)

input-smiles | recorded-value
O=C(Nc1ccnc(C(F)(F)F)c1)c1cnn(-c2cccc3c(=O)[nH]ccc23)c1C(F)(F)F | 940

====

method: 14-day oral toxicity study toxicokinetics in Sprague-Dawley rats
Assay type: in vivo
recorded-conditions: female, rat, plasma, 200 mg/kg/day, female, Day 13, 200 mg/kg/day, mean, read-out: AUC0-24 h

compound | AUC(0-t) [µg·h/mL]
O=C(Nc1ccnc(C(F)(F)F)c1)c1cnn(-c2cccc3c(=O)[nH]ccc23)c1C(F)(F)F [Compound A] | 1300

====

method: Single IV dose plasma PK
Assay type: in vivo, monkey
recorded-conditions: male, plasma; Monkey, cynomolgus, 3M, 1 mg/kg IV in 70% PEG400; mean

input-smiles | AUC(0-inf) / ng·h/mL
O=C(Nc1ccnc(C(F)(F)F)c1)c1cnn(-c2cccc3c(=O)[nH]ccc23)c1C(F)(F)F | 16400

====

method: FIH study 67856633LYM1001 plasma pharmacokinetics
Format: in vivo, human
recorded-conditions: human, plasma, oral, 400 mg, Cycle 2 Day 1, 50 mg capsule, cohort 8 × 50 mg; median; read-out: Tmax
measurement-kind: Tmax (h)

input-smiles | measurement-kind | recorded-value
O=C(Nc1ccnc(C(F)(F)F)c1)c1cnn(-c2cccc3c(=O)[nH]ccc23)c1C(F)(F)F | Tmax | 3.5

====

method: FIH study 67856633LYM1001 plasma pharmacokinetics
Format: in vivo, human
recorded-conditions: human, plasma, oral, 600 mg, Cycle 1 Day 1, 200 mg capsule, cohort 3 × 200 mg; individual values, N = 2; read-out: AUCτ
measurement-kind: AUC (µg·h/mL)

input-smiles | measurement-kind | result-unit | recorded-value
O=C(Nc1ccnc(C(F)(F)F)c1)c1cnn(-c2cccc3c(=O)[nH]ccc23)c1C(F)(F)F | AUC | µg·h/mL | 123

====

method: Serum concentration after 28 days of oral dosing in male OCI-LY3 tumor-bearing NSG mice
Format: in vivo
recorded-conditions: mouse, 60 mg/kg QD PO 28 days, 4 h post last dose, mean
Method: For study 3, animals were randomly assigned into treatment groups, when the OCI-LY3 mean tumor volume was 164 mm^3 (Day 32 post-tumor cell implantation). Treatment was initiated on the day of randomization (Day 32). After 28 days of treatment on Day 60, serum was collected at 2, 4, and 12 hours post last dose for the bid treated groups or 2, 4 and 24 hours post last dose for qd treated groups in cohorts of 5 mice. […]

compound | result-unit | concentration at 4 h
O=C(Nc1ccnc(C(F)(F)F)c1)c1cnn(-c2cccc3c(=O)[nH]ccc23)c1C(F)(F)F [Compound A] | ng/mL | 11400

====

method: Single oral dose plasma PK in fasted dogs
Format: in vivo, dog
recorded-conditions: male, beagle, dog, plasma, po, 20 mg/kg, 3M, 20 mg/kg PO, 0.5% HPMC suspension, Study 2
From the text: With the suspension formulation the double-peak phenomenon is even more pronounced. As observed in rats, dose escalation in dogs resulting in proportional or dose-related exposure with the PEG400 solution was unsuccessful in identifying a vehicle suitable for toxicology studies.

input-smiles | result-unit | half-life
O=C(Nc1ccnc(C(F)(F)F)c1)c1cnn(-c2cccc3c(=O)[nH]ccc23)c1C(F)(F)F | min | 1070

====

method: Serum and tumor levels after multiple oral doses in male OCI-LY3 tumor-bearing NSG mice
Format: in vivo
recorded-conditions: male, NSG, mouse, serum, oral, 10 mg/kg, 10 mg/kg twice daily PO, Day 5 eight doses given, 12 h post dose (trough); mean (SD); read-out: Serum concentration

input-smiles | concentration at 12 h (ng/mL)
O=C(Nc1ccnc(C(F)(F)F)c1)c1cnn(-c2cccc3c(=O)[nH]ccc23)c1C(F)(F)F | 2200

====

method: Single oral dose plasma PK in fasted dogs
Format: in vivo, dog
recorded-conditions: male, beagle, dog, plasma, po, 22.5 mg/kg, 3M, 22.5 mg/kg PO, PEG400/PVP VA 90:10 solution, Study 6
Text: With the suspension formulation the double-peak phenomenon is even more pronounced. As observed in rats, dose escalation in dogs resulting in proportional or dose-related exposure with the PEG400 solution was unsuccessful in identifying a vehicle suitable for toxicology studies.
measurement-kind: AUC(0-inf)

input-smiles | recorded-value
O=C(Nc1ccnc(C(F)(F)F)c1)c1cnn(-c2cccc3c(=O)[nH]ccc23)c1C(F)(F)F | 757 µg·h/mL

====

method: FIH study 67856633LYM1001 plasma pharmacokinetics
Type: in vivo, human
recorded-conditions: human, plasma, oral, 400 mg, Cycle 1 Day 1, 50 mg capsule, cohort 8 × 50 mg; median; read-out: Tmax
measurement-kind: Tmax (h)

input-smiles | measurement-kind | recorded-value
O=C(Nc1ccnc(C(F)(F)F)c1)c1cnn(-c2cccc3c(=O)[nH]ccc23)c1C(F)(F)F | Tmax | 3

====

method: Serum and tumor levels after multiple oral doses in male OCI-LY3 tumor-bearing NSG mice
Type: in vivo
recorded-conditions: male, NSG, mouse, tumor, oral, 10 mg/kg, 10 mg/kg twice daily PO, Day 5 eight doses given, 12 h post dose; mean (SD); read-out: Tumor concentration

input-smiles | result-unit | concentration at 12 h
O=C(Nc1ccnc(C(F)(F)F)c1)c1cnn(-c2cccc3c(=O)[nH]ccc23)c1C(F)(F)F | ng/g | 2160

====

method: Serum and tumor levels after multiple oral doses in male OCI-LY3 tumor-bearing NSG mice
Format: in vivo
recorded-conditions: male, NSG, mouse, tumor and serum; 10 mg/kg twice daily PO, Day 5, 12 h post dose; mean (SD); read-out: Tumor: serum ratio

input-smiles | Kp at 12 h
O=C(Nc1ccnc(C(F)(F)F)c1)c1cnn(-c2cccc3c(=O)[nH]ccc23)c1C(F)(F)F | 1

====

method: FIH study 67856633LYM1001 plasma pharmacokinetics
Assay type: in vivo, human
recorded-conditions: human, plasma, oral, 200 mg, Cycle 1 Day 1, 50 mg capsule, cohort 4 × 50 mg, Subject 100032 excluded; median; read-out: Tmax

input-smiles | Tmax [h]
O=C(Nc1ccnc(C(F)(F)F)c1)c1cnn(-c2cccc3c(=O)[nH]ccc23)c1C(F)(F)F | 4

====

method: Preliminary food effect assessment at steady state
Type: in vivo, human
recorded-conditions: human, plasma, oral, 200 mg, 4 × 50 mg, fed condition, steady state; N = 1
measurement-kind: AUC (µg·h/mL)

compound | recorded-value
O=C(Nc1ccnc(C(F)(F)F)c1)c1cnn(-c2cccc3c(=O)[nH]ccc23)c1C(F)(F)F [Compound A] | 1010
